test-system: human αVβ5 (Homo sapiens, UniProt P06756+P18084)
Sequence (P06756 31-992 limits assumed): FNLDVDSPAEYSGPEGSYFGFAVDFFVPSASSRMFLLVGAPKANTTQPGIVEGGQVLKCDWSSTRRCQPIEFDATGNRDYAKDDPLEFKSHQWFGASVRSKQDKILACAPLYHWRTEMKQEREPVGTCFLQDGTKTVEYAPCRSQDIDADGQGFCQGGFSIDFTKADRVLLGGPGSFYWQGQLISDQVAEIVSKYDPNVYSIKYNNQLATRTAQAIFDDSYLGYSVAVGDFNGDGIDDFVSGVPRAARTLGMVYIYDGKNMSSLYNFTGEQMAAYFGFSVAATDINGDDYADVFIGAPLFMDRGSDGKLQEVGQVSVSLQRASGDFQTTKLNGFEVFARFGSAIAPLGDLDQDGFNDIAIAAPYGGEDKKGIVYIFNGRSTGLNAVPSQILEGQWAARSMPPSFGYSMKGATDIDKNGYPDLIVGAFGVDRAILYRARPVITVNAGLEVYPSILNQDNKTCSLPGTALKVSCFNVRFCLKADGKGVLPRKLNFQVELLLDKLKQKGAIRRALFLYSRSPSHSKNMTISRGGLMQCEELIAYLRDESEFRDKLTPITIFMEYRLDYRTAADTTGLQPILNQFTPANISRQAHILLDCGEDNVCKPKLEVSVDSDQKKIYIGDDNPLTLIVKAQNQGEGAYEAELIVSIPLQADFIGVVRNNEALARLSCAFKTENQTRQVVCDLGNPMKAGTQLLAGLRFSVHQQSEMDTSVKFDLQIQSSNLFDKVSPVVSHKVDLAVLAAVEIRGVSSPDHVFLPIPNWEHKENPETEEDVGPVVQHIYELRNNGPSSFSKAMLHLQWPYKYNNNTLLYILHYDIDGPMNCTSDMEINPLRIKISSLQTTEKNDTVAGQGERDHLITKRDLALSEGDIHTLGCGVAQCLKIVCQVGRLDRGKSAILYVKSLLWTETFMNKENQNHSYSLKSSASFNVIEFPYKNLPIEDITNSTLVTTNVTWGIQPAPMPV
Sequence (P18084 24-719 limits assumed): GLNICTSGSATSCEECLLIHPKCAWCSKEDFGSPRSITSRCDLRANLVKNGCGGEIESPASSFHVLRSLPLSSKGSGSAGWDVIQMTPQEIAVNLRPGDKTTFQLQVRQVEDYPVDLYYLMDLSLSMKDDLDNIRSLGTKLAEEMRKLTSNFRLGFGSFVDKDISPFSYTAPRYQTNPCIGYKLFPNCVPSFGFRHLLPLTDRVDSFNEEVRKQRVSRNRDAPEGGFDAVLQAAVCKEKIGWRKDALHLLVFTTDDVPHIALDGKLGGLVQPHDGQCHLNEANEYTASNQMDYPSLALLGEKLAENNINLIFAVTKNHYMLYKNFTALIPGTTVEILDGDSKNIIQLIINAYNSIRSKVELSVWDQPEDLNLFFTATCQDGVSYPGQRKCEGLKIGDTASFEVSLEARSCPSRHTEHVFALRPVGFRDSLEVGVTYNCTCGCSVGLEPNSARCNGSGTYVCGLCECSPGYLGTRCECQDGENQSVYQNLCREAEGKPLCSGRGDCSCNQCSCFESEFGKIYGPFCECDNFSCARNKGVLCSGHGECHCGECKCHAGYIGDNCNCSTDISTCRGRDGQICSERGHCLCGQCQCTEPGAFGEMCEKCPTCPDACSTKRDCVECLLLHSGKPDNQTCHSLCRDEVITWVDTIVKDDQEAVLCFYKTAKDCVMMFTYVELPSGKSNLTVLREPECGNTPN
protocol-summary: human αVβ5 HTRF binding assay
condition-parameters: alternatively SPA-based assay
value-kind: IC50 (nM)

[a] COc1ncc([C@H](CC(=O)O)NC(=O)[C@H]2C[C@@H](CCc3ccc4c(n3)NCCC4)C2)cn1
[b] O=C(O)C[C@@H](c1ccc2c(c1)CCO2)N1CC(CCCCc2ccc3c(n2)NCCC3)C1=O (some centres unmarked)
Please let me know which one, a or b , has a lower measured IC50 value. In your reply, give the label of the chosen option.
b

[A] O=C(N[C@@H](CNC(=O)[C@H]1C[C@H](CCc2ccc3c(n2)NCCC3)C1)C(=O)O)OCc1ccccc1
[B] COc1ccc([C@H](CC(=O)O)NC(=O)[C@H]2C[C@H](CCc3ccc4c(n3)NCCC4)C2)cc1F
Pick one: A or B . Which has the bigger IC50 number? In your reply, give the label of the chosen option.
B

[P] O=C(O)C[C@@H](c1cnc2ccccc2c1)N1CC(CCCCc2ccc3c(n2)NCCC3)C1=O (some centres unmarked)
[Q] O=C(O)C[C@H](NC(=O)C1(F)CN(CCc2ccc3c(n2)NCCC3)C1)c1cnc2ccccc2c1
Pick one: P or Q . Which has the bigger IC50 number? In your reply, give the label of the chosen option.
P
(P: 5.46 nM, Q: 2.1 nM)

###

test-system: human αVβ5 (Homo sapiens, UniProt P06756+P18084)
protocol-summary: human αVβ5 HTRF binding assay
condition-parameters: alternatively SPA-based assay
value-kind: IC50 (nM)

Study these solved cases before continuing.
O=C(O)C[C@H](NC(=O)N1CC(CCc2ccc3c(n2)NCCC3)C1)c1ccc2c(c1)OCC2; 1
COc1ccc([C@H](CC(=O)O)NC(=O)C2CC(CCc3ccc4c(n3)NCCC4)C2)cn1 (stereo partly shown); 0.58
Cc1cc(C)c(S(=O)(=O)N[C@@H](CNC(=O)[C@H]2C[C@@H](CCc3ccc4c(n3)NCCC4)C2)C(=O)O)c(C)c1; 0.44

[1] O=C(O)C[C@H](NC(=O)N1CC(CCc2ccc3c(n2)NCCC3)C1)c1cnc2ccccc2c1
[2] O=C(N[C@@H](CNC(=O)[C@H]1C[C@@H](CCc2ccc3c(n2)NCCC3)C1)C(=O)O)OCc1ccccc1
[3] COc1ccc([C@H](CC(=O)O)NC(=O)N2CC(CCc3ccc4c(n3)NCCC4)C2)cc1F
Order the items by recorded IC50; the first position goes to the largest value. # list labels per requested ordering
3, 1, 2
(3: 9.4 nM, 1: 1.3 nM, 2: 0.01 nM)

###

test-system: human αVβ3 (Homo sapiens, UniProt P05106+P06756)
Sequence (P06756 31-992 limits assumed): as the sequence (P06756 31-992 limits assumed) above
Sequence (P05106 27-718 limits assumed): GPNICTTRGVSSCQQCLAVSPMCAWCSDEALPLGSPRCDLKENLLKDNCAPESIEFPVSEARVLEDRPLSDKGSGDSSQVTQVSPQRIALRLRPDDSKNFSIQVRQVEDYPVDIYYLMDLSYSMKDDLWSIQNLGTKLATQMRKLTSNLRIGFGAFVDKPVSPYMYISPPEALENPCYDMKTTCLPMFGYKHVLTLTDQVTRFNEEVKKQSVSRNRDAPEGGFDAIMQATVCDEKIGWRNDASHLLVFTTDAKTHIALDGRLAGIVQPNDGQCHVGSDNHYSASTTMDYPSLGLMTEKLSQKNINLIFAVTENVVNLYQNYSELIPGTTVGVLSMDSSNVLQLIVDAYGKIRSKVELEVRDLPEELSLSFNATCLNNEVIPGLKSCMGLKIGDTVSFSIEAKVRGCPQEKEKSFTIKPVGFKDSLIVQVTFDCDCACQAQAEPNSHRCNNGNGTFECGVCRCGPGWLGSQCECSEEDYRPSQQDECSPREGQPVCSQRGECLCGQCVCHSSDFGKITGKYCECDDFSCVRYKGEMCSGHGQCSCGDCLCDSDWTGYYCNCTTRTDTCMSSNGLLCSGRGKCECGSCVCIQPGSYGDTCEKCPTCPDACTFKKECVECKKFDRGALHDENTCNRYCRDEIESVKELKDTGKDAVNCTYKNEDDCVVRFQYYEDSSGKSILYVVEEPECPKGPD
protocol-summary: human αVβ3 HTRF binding assay
condition-parameters: alternatively SPA-based assay
Excerpt: All binding assays used the HTRF (homogeneous time resolved fluorescence) technology from Cisbio International, therefore all assays are described as HTRF binding assays. The assay results for the Examples are listed above together with the characterization data. The HTRF binding assays are established for the following integrins: human αVβ6, human αVβ1, human αVβ3, human αVβ5, and human αVβ8. […]
value-kind: IC50 (nM)

O=C(O)C[C@H](NC(=O)N1CC(CCc2ccc3c(n2)NCCC3)C1)c1cnc2ccccc2c1 [Example 96]; 2.3
O=C(O)C[C@H](NC(=O)C1(F)CN(CCc2ccc3c(n2)NCCC3)C1)c1cnc2ccccc2c1 [Example 80]; 2.3
O=C(N[C@@H](CNC(=O)C1(F)CN(CCc2ccc3c(n2)NCCC3)C1)C(=O)O)OCc1ccccc1 [Example 45]; 3.07
COc1ccc([C@H](CC(=O)O)NC(=O)[C@H]2C[C@H](CCc3ccc4c(n3)NCCC4)C2)cn1 [Example 59]; 2.7
